Just for reference, the supplement of paper PMC3334620 is where these values come from.

Tested on: Pdr3 (UniProt P33200)
Sequence: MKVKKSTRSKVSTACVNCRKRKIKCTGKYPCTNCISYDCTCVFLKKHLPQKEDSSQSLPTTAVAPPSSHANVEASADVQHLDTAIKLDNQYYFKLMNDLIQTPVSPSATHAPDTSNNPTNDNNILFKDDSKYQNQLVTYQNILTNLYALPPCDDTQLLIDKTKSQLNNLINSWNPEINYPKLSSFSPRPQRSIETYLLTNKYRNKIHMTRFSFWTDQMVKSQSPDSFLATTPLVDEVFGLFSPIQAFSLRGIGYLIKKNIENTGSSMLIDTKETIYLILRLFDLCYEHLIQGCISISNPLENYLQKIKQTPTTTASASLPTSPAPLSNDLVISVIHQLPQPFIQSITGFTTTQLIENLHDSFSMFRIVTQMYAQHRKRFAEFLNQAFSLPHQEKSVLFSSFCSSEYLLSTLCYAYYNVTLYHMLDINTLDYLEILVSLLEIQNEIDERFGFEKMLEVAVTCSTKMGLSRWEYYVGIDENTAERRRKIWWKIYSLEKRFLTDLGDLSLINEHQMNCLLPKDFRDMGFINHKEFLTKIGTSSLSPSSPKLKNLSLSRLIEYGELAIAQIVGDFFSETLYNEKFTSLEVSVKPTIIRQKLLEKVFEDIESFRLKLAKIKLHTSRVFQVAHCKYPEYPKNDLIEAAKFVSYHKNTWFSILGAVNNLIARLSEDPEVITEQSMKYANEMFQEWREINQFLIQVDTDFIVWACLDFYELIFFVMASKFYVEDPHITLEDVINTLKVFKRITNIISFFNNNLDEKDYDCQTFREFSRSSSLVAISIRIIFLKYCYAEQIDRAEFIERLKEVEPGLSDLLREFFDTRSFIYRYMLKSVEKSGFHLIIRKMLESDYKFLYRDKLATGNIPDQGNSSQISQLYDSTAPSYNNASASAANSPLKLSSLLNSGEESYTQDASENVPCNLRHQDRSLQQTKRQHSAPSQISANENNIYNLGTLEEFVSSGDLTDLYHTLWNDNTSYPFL
Protocol summary: PBM E-score (8-mer binding enrichment) (E-score (-0.5 to 0.5)); higher = stronger / more preferred TF binding
Assay context: protein concentration: 200 nM; construct: GST-full length
Over roughly 33,000 sequences, “E-score (-0.5 to 0.5)” has its median near -0.035; the highest 2% begin near 0.35. Shown is part of a subset that was picked to be rich in the highest values.
Observable: PBM E-score
# output: bare number, no unit

Worked examples, 5 sequences total:
1) CAAAACCG : 0.00937
2) CAGGGCAA : 0.0442
3) GATCGGTA : 0.146
4) ACGGGACC : 0.241
5) CGACGGAG : 0.331

# PBM E-score lookup, item ACCGGCGG 0.256

Now the sequence CCGGGCCG 0.399

Then what about the sequence CAGAAATC ? -0.108

Continue with CCCGGCAG 0.303

Next up: ACGCCCCG 0.181

Another: ACGGGCAC 0.025

Now give it for CCCACCCG too. 0.387
